pIC50: −log10 of the molar value.
Hi! I'm sharing some pIC50 results obtained with Epidermal growth factor receptor (Homo sapiens, UniProt P00533, L858R/T790M).
Sequence (P00533 25-1210 T790M/L858R limits assumed): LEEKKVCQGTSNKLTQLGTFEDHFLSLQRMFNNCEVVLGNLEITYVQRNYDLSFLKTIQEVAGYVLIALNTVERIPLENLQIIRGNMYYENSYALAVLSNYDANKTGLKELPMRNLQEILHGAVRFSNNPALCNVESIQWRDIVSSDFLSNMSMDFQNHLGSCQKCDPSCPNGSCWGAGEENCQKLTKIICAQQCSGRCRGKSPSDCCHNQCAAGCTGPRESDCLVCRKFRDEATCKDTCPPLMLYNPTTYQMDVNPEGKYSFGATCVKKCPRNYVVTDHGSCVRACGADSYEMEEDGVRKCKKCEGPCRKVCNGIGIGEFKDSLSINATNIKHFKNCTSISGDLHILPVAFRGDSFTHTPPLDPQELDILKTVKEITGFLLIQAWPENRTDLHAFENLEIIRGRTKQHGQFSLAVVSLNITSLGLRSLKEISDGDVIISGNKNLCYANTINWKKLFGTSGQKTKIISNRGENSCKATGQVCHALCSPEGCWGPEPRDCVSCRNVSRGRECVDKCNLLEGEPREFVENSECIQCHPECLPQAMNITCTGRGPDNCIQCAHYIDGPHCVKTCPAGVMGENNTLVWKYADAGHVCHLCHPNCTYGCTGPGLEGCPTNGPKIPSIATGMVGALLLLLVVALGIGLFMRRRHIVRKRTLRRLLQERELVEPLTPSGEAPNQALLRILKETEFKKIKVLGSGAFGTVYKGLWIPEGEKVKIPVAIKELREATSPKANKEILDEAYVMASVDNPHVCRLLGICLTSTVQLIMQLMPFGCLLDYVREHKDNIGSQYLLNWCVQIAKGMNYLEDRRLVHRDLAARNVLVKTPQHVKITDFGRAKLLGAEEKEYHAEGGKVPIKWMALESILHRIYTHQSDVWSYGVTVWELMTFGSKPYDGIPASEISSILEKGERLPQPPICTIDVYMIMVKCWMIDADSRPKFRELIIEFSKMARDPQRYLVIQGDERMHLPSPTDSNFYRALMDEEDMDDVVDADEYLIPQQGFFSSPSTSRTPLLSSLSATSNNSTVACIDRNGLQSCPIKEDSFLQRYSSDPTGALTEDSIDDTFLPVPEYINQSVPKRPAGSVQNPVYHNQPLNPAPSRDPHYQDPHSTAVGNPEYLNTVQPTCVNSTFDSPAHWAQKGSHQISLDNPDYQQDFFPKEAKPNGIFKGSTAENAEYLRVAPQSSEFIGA
MEASURED_PROPERTY: pIC50

>>> observed_measurement("C=CC(=O)Nc1ccc2c(Nc3cc[nH]n3)nc(-c3ccccc3)nc2c1")
5.66
>>> observed_measurement("CN(C)C/C=C/C(=O)Nc1cccc(Oc2nc(Nc3n[nH]c4ccccc34)cc(N3CCN(C)CC3)n2)c1")
6.15
>>> observed_measurement("CCC(=O)Nc1cccc(-c2nc(Nc3cc[nH]n3)c3ccccc3n2)c1")
6.40
>>> observed_measurement("C=CC(=O)Nc1ccc(Oc2nc(Nc3cc(C)[nH]n3)cc(N3CCN(C)CC3)n2)cc1")
5.62
>>> observed_measurement("C=CC(=O)Nc1cccc(-c2nc(Nc3cc[nH]n3)c3ccccc3n2)c1")
7.00
>>> observed_measurement("C=CC(=O)Nc1cccc(-c2nc(Nc3n[nH]c4ccccc34)cc(N3CCN(C)CC3)n2)c1")
5.31
>>> observed_measurement("CCC(=O)Nc1ccc(Oc2nc(Nc3cc(C)[nH]n3)cc(N3CCN(C)CC3)n2)cc1")
6.15
>>> observed_measurement("C=CC(=O)Nc1ccccc1-c1nc(Nc2cc[nH]n2)c2ccccc2n1")
5.96
>>> observed_measurement("C=CC(=O)Nc1cccc(Oc2nc(Nc3n[nH]c4ccccc34)cc(N3CCN(C)CC3)n2)c1")
7.15
>>> observed_measurement("C=CC(=O)Nc1cccc(Oc2nc(Nc3cc(C)[nH]n3)cc(N3CCN(C)CC3)n2)c1")
6.30
>>> observed_measurement("C=CC(=O)Nc1cc(Nc2cc[nH]n2)nc(-c2ccccc2)n1")
6.52
>>> observed_measurement("C=CC(=O)Nc1cccc(Oc2nc(Nc3n[nH]c4ccccc34)cc(N3CCN(C(C)=O)CC3)n2)c1")
6.70
>>> observed_measurement("Cc1cc(Nc2cc(N3CCN(C)CC3)nc(Oc3ccc(NC(=O)/C=C/C(F)(F)F)cc3)n2)n[nH]1")
5.82
